Molecular target: T1, human ASGR-1 (wild type) (human, UniProt P07306 1-291)
T1 construct: also called wt ASGR1; huASGR-1
T1 sequence: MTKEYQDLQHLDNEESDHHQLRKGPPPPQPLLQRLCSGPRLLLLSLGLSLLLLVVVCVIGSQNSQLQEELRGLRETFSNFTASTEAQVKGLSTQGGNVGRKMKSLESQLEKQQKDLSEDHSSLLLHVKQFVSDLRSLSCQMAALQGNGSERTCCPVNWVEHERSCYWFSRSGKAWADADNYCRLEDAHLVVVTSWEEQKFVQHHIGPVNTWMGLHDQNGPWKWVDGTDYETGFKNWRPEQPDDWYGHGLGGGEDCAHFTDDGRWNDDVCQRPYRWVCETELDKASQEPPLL
Test: FACS, transfected CHO-S cells, mAb 5 ug/ml
// assign 1 if FACS Binding Geomean falls strictly below 40000, else -1 (ties count as -1)

1. 56E5 (antibody, V domains shown, mAb) VH: QVQLVQSGAEVKKPGASVKVSCQASGYTFTGYHMHWVRQAPGQGLEWMGWINPNNNATNYAQKFQGRVTMTRDTSISTAYMELRRLRSDDTAVYHCARDGTSSFDYWGQGTLVTVSS VL: DIQMTQSPSSVSASVGDRVTITCRASQGIRKWLAWYQQKPGKAPKLLIYAASSLQSGVPSRFSGSGSGTDFTLTISSLQPEDFATYYCQQANSFPFTFGPGTKVDIK ... -1
2. 184E7 (antibody, V domains shown, mAb) VH: QVQLVQSGAEVKTPGASVKVSCRASGYTFTSYNMHWVRQVPGQGLEWMGWINPNNGGSNYTQKFQGRVTMTRDTSISTAYMELSRLRSDDTAVYYCARKFGDWGQGTLVTVSS VL: DIQMTQSPSSRSASIGERVTITCRASQGISNYLAWIQQKPGTAPKSLIYAASSLQSGVSSRFSGSGFGTDFTITISSVQREDFATYYCQQYNGYPFTFGHGTKVDIK ... -1

FACS Binding Geomean under 40000? Item: 7E11 (antibody, V domains shown, mAb) VH: QVQLVESGGGVVQPGRSLRLSCAASGFTFSSFGMHWVRQAPGKGLEWVAIIWHDGSNKYYADSVKGRFTISRDNSNNTLYLQMSSLRAEDTAVYYCARDLSMGGMDVWGQGTTVTVSS VL: DIQMTQSPSSLSASVGDRVTIACRASQNIISYLNWYQQKPGKAPKFLIYTASSLQSGVPSRFSGSGSGTDFTLTISSLQPEDFAIYYCQQTYSTPLTFGGGTKVEIK
-1

FACS Binding Geomean under 40000? Item: 218G4 (antibody, V domains shown, mAb) VH: QVQLVESGGGVVQPGRSLRLSCAASGFTFSSYGLHWVRQAPGKGLEWVAVIWYDGSNKYYADSVKGRFTISRDNSKNTLYLQMNSLRVEDTAVYYCANWYYYYYGMDVWGQGTTVTVSS VL: QSVLTQPPSVSAAPGQKVTISCSGSSSNIGNNYVSWYQQLPGTAPKLLLYDSNKRPSGIPARFSGSKSGTSATLGITGLQTGDEADYYCGTWDSSLNTVVFGGGTKLTVL
1

Problem: For the binder 50G9 (antibody, V domains shown, mAb) VH: QVQLVESGGGVVQPGRSLRLSCAASGFIFSSYGMHWVRQAPGKGLEWVAVISQDGIIRYYADSVKGRFTISRDNSKNTLYLQMNSLRAEDTAVYYCARDVKQWLVRTYGMDVWGQGTTVTVSS VL: SYELTQPPSVSVSPGQTASITCSGDKLGDKYACWYQQKPGQSPVLVIYQDSKRPSGIPERFSGSNSGNTATLTISGTQARDEAEYYCQARNSRRGVFGGGTRLTVL , is FACS Binding Geomean under 40000?
1
